Listed here are compounds together with their documented Inhibition.
tested on: Staphylococcus aureus; details: Concentration 32 ug.mL-1;; ASSAY_TEST Inhibition of Bacterial Growth; detection method Absorption (OD600); MEDIA CAMHB; plate type 384well; NBS; CORNING #3640; time 18 hr
Description: Antibacterial activity against Staphylococcus aureus MRSA ATCC 43300 (CO-ADD:GP_020); MIC in CAMBH media, using NBS plates, by OD(600)
Entries with a potency or affinity are not part of this list.
Give the quantity in %, number only.

- compound: "CCC(C)NC(=O)Cn1nc2n(CC(C)C)c(=O)c3ccc(C(=O)NC4CCCCC4)cc3n2c1=O (stereo not given)"
  reading: 7.36

Incoming: Query (compound): Cc1nnc2c(=O)n(CC(=O)Nc3ccc(F)cc3)c3ccccc3n12 ; field requested: Inhibition
Outgoing: 15.51

Incoming: Please do the same for CC(C)c1ccc(NC(=O)Cn2nc3c(N4CCCCC4)nccn3c2=O)cc1 as well.
Outgoing: -8.03

Incoming: Please do the same for O=S(=O)(c1ccc2nncn2c1)N(Cc1cc(F)cc(F)c1)c1ccc2c(c1)OCO2 as well.
Outgoing: 8.77

Incoming: Please do the same for Cc1ccccc1Oc1nccn2c(=O)n(CC(=O)Nc3cc(F)ccc3F)nc12 as well.
Outgoing: 11.37

Incoming: Please do the same for COc1ccc(-c2cc3c4nnc(SCC(=O)Nc5cc(F)ccc5C)n4ccn3n2)cc1 as well.
Outgoing: -23.41

Incoming: Please do the same for COc1ccc(CN(c2cc(C)cc(C)c2)S(=O)(=O)c2cccn3c(C)nnc23)cc1 as well.
Outgoing: -21.45

Incoming: Please do the same for Cc1ccccc1Nc1cc(C)n2c(=O)n(CCc3ccccc3)nc2n1 as well.
Outgoing: -11.65

Incoming: Please do the same for COc1ccc(-c2cc3c4nnc(SCC(=O)Nc5ccccc5C(F)(F)F)n4ccn3n2)cc1 as well.
Outgoing: -10.53

Incoming: Please do the same for CCOc1ccc(-n2ccn3c(SCC(=O)c4cc(C)c(C)cc4C)nnc3c2=O)cc1 as well.
Outgoing: 7.6

Incoming: Please do the same for COc1ccc(CNC(=O)CCc2nnc3c(N4CCCCC4)nc4ccccc4n23)cc1OC as well.
Outgoing: 16.6

Incoming: Please do the same for Cc1[nH]c2ccccc2c1C(=O)CSc1nnc2c(=O)n(-c3ccc(Br)cc3)ccn12 as well.
Outgoing: -0.76

Incoming: Please do the same for Cc1ccc(-c2nc(CSc3nc4ccccc4n4c(C(C)C)nnc34)c(C)o2)cc1 as well.
Outgoing: -8.56

Incoming: Please do the same for O=C1CCCN1c1ccc(Cn2nc3ccc(-c4ccccc4)nn3c2=O)cc1 as well.
Outgoing: -3.3

Incoming: Please do the same for CCCN(C)c1nccn2c(=O)n(CC(=O)Nc3ccc(C#N)cc3)nc12 as well.
Outgoing: 14.04

Incoming: Please do the same for O=C(CSc1nnc2c(=O)n(-c3cccc(F)c3)ccn12)c1ccc(F)cc1 as well.
Outgoing: 5.39

Incoming: Please do the same for Cc1ccc(F)cc1NC(=O)CSc1nc2ccccc2n2c(C)nnc12 as well.
Outgoing: 2.37

Incoming: Please do the same for CN(C(=O)Cn1nc2nc(Nc3ccc(F)cc3)ccn2c1=O)c1ccccc1 as well.
Outgoing: -13.79

Incoming: Please do the same for CC(C)c1nnc2c(SCC(=O)Nc3ccc(F)cc3F)nc3ccccc3n12 as well.
Outgoing: 6.8

Incoming: Please do the same for O=C(CSc1nnc2c(=O)n(-c3ccc(F)c(F)c3)ccn12)c1cccc(Cl)c1 as well.
Outgoing: 13.4

Incoming: Please do the same for COc1ccc(-c2cc3c4nn(CC(=O)NCc5ccc(Cl)cc5)c(=O)n4ccn3n2)cc1 as well.
Outgoing: 12.72

Incoming: Please do the same for N#Cc1cccc(Cn2nc3ccc(S(=O)(=O)N4CCCCCC4)cn3c2=O)c1 as well.
Outgoing: 10.44

Incoming: Please do the same for CSc1ccc(CNC(=O)Cn2nc3c(N4CCN(c5ccccc5)CC4)nccn3c2=O)cc1 as well.
Outgoing: 15.59
